The entries below come with measured AUC(0-t) at 24 h values attached.
- TEST_DESCRIPTION: in vivo
- CONDITION_NOTES: Sprague-Dawley, rat, po, 5 mg/kg

SUBSTANCE_SMILES	AUC(0-t) at 24 h [µM·h]
C=C(C)[C@@H]1CC[C@]2(NC(=O)OCCN3CCS(=O)(=O)CC3)CC[C@]3(C)[C@H](CC[C@@H]4[C@@]5(C)CC=C(c6ccc(C(=O)O)cc6)C(C)(C)[C@@H]5CC[C@]43C)[C@@H]12	4.97
C=C(C)[C@@H]1CC[C@]2(NCCN3CCCCS3(=O)=O)CC[C@]3(C)[C@H](CC[C@@H]4[C@@]5(C)CC=C(c6ccc(C(=O)O)cc6)C(C)(C)[C@@H]5CC[C@]43C)[C@@H]12	4.24
C=C(C)[C@@H]1CC[C@]2(NCCN3C[C@@H]4C[C@H]3CN4S(C)(=O)=O)CC[C@]3(C)[C@H](CC[C@@H]4[C@@]5(C)CC=C(c6ccc(C(=O)O)cc6)C(C)(C)[C@@H]5CC[C@]43C)[C@@H]12	7.08
C=C(C)[C@@H]1CC[C@]2(CNCCCN3CCS(=O)(=O)CC3)CC[C@]3(C)[C@H](CC[C@@H]4[C@@]5(C)CC=C(c6ccc(C(=O)O)cc6)C(C)(C)[C@@H]5CC[C@]43C)[C@@H]12	3.15
